# System: wheat
# Test Method Notes: Test A pre-/postemergence greenhouse test
# Format: in vivo, Triticum aestivum
# Run Conditions: Postemergence, 500 g ai/ha; 0 to 100 scale, 0 is no effect, 100 is complete control
Value Type: Wheat plant response rating
Answers are plain numbers.

I'm hoping you can list Wheat plant response rating for every compound here, please.
1. Cn1nc(C(F)(F)F)c(C[S+]([O-])c2ccc(F)c[n+]2[O-])c1OCC(F)(F)F (stereo not shown)
2. Cn1nc(C(F)(F)F)c(CS(=O)(=O)c2ccc(F)c[n+]2[O-])c1OCC(F)(F)F

Given back:
1. 70
2. 0

====

# System: corn
# Test Method Notes: Test C pre-/postemergence test
# Assay type: in vivo, Zea mays
# Run Conditions: Preemergence, 31 g ai/ha; scale 0 to 100 (0 no effect, 100 complete control)
Answer each item with its documented Plant response rating, Corn.
Answers are plain numbers.

Below, each entry is followed by its recorded Plant response rating, Corn result.
>>> experimental_result("Cn1nc(C(F)(F)F)c(C[S+]([O-])c2cc(Br)cc[n+]2[O-])c1Cl (racemic)")
10
>>> experimental_result("Cn1nc(C(F)(F)F)c(C[S+]([O-])c2cccc[n+]2[O-])c1OCC(F)(F)F (racemic)")
30

Could you now look at the following molecule, please?
Asked: Quick check: Plant response rating, Corn of "Cn1nc(C(F)(F)F)c(CS(=O)(=O)c2ccc(Cl)c[n+]2[O-])c1OCC(F)(F)F" ?
Given back: 0
